FYI, the data here is from patent US20030224021A1.

Provide the recorded positive response (1%) for the entries that follow.
system: PBMC; experiment: PBMC of 49 HLA heterogenous subjects challenged with DTX and TTX universal epitope peptides; format: cell-based, human; settings: share of the 49 subjects whose PBMC responded
Where no end group is shown, it is not given here.
Dear colleague, please return just the value in %, with no unit written.

Consider the substance Gln-Ser-Ile-Ala-Leu-Ser-Ser-Leu-Met-Val-Ala-Gln-Ala-Ile-Pro-leu-Val-Gly-Glu-Leu [331-350] and give its measured positive response (1%). 80

For GVLLPTIPGKLDVNKSKTHI [431-450] then? 70

For VHHNTEEIVAQSIALSSLMV [321-340] then? 76

For PVFAGANYAAWAVNVAQVI [271-290] then? 84

For QGESGHDIKITAENTPLPIA [411-430] then? 70

For VDIGFAAYNFVESIINLFQVV [351-370] then? 71
